Average A450 nm for assorted binders
- TESTED SYSTEM: T1, Human c-Met-Flis-Fc ECD (human)
- T1 construct: also called human c-Met extracellular domain (ECD)-Fc-Flis fusion; Human cMet-ECD-Fc-Flis
- T1 sequence (chain, as listed by the source limits assumed): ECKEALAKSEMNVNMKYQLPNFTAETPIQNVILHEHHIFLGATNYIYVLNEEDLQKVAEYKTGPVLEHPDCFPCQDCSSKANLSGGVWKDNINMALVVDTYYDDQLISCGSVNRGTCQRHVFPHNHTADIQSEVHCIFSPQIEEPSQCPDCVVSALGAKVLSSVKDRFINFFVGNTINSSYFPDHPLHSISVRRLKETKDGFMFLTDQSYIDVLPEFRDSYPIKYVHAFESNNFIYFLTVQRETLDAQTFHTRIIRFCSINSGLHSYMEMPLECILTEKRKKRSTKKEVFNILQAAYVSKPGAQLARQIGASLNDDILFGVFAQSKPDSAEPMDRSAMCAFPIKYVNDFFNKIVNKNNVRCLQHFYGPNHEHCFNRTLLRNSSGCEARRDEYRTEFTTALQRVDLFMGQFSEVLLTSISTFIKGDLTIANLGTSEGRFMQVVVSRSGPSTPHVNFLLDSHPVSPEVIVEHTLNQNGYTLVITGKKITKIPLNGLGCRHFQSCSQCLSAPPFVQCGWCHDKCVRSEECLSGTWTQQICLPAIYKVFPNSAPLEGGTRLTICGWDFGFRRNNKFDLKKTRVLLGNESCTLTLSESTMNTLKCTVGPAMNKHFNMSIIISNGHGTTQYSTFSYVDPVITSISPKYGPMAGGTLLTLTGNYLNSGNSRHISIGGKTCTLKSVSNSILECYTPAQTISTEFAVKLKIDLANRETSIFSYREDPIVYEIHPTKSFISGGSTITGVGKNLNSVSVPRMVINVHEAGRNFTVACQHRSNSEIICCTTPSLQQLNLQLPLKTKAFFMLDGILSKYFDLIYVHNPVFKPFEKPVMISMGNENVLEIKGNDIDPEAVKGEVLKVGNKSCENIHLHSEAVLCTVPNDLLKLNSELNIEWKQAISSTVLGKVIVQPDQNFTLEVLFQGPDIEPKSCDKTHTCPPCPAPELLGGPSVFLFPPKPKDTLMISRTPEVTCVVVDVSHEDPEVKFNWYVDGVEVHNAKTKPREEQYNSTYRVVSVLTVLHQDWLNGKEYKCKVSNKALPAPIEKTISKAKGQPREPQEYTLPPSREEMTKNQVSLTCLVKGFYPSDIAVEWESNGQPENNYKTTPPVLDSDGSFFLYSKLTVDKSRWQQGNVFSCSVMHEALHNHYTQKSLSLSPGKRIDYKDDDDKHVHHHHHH
- METHOD NOTES: ELISA, coated ECD-Fc, antibody 0.000 ng/mL
QUANTITY MEASURED: Average A450 nm (A450 nm)

{"BINDER": "C8-6 (antibody, human IgG2, kappa, V domains shown, Called IgG4, kappa; also called Mab C8-6) VH: QVQLVQSGAEVKKPGASVKVSCKASGYTFTDYYMHWVRQAPGQGLEWMGRVNPNRGGTTYNQKFEGRVTMTTDTSTSTAYMELRSLRSDDTAVYYCARTNWLDYWGQGTTVTVSS VL: DIQMTQSPSSLSASVGDRVTITCSVSSSVSSIYLHWYQQKPGKAPKLLIYSTSNLASGVPSRFSGSGSGTDFTLTISSLQPEDFATYYCIQYSGYPLTFGGGTKVEIKR", "QUANTITY MEASURED": "Average A450 nm", "RECORDED NUMBER": 0.322}
{"BINDER": "D11-C27G3 (antibody, human IgG2, kappa, V domains shown, Human engineered IgG2, kappa; also called D11-27G3) VH: QVQLVQSGAEVKKPGSSVKVSCKASGYTFTSRYIHWVRQAPGQGLEWMGWIYPVTGDTYYREPFKGRVTITADKSTSTAYMELSSLRSEDTAVYYCARGYGAFYYWGQGTLVTVSS VL: EIVLTQSPGTLSLSPGERATLSCSVSSSISSTNLHWYQQKPGQAPRLLIYGTSRLRSGIPDRFSGSGSGTDFTLTISRLEPEDFAVYYCQQWSSYPYSFGQGTKLEIKR", "QUANTITY MEASURED": "Average A450 nm", "RECORDED NUMBER": 0.284}
{"BINDER": "C8-co-16 (antibody, human IgG2, kappa, V domains shown, Called IgG4, kappa) VH: QVQLVQSGAEVKKPGASVKVSCKASGYTFTDYYMHWVRQAPGQGLEWMGRVNPYRGSTTYNQKFEGRVTMTTDTSTSTAYMELRSLRSDDTAVYYCARANILDYWGQGTTVTVSS VL: DIQMTQSPSSLSASVGDRVTITCSVSSSVRSIYLHWYQQKPGKAPKLLIYSTSNLASGVPSRFSGSGSGTDFTLTISSLQPEDFATYYCQVYRGYPLTFGGGTKVEIKR", "QUANTITY MEASURED": "Average A450 nm", "RECORDED NUMBER": 0.335}
{"BINDER": "C8-H241 (antibody, human IgG2, kappa, V domains shown, Called IgG4, kappa; also called Mab C8-H241) VH: QVQLVQSGAEVKKPGASVKVSCKASGYTFTDYYMHWVRQAPGQGLEWMGRVNPNRRGTTYNQKFEGRVTMTTDTSTSTAYMELRSLRSDDTAVYYCARANWLDYWGQGTTVTVSS VL: DIQMTQSPSSLSASVGDRVTITCSVSSSVSSIYLHWYQQKPGKAPKLLIYSTSNLASGVPSRFSGSGSGTDFTLTISSLQPEDFATYYCQVYSGYPLTFGGGTKVEIKR", "QUANTITY MEASURED": "Average A450 nm", "RECORDED NUMBER": 0.3}
